experiment: Tmax in Sprague-Dawley rat at 10 mg/kg, po by LC/MS/MS analysis; assay type: ADME, organism-based; set-up: dose 10 mg/kg, route oral; conditions: in vivo
Measurement Type: Tmax (h)
Give just the number in h; leave the unit off.

Query :: Give the measured Tmax for C/C(=N\O)c1nc([C@@H](O)[C@H](O)[C@H](O)CO)c[nH]1.Cl
Result :: 2

###

Parameter: Activity. Scope: all listed entries.
tested on: Mus musculus; test: Immunomodulatory activity in 129/SvEvBrd X C57BL/6 F1 mouse assessed as decrease in peripheral blood lymphocyte count at 30 mg/kg, po measured after 18 hrs by complete blood count analysis relative to control; type: ADME, organism-based; parameters: dose 30 mg/kg, route oral; scale not given: the % may be the effect or the level left; conditions: in vivo
Numbers only here, please. The scale is %.

Known results for molecules:
1. Cl.OC[C@@H](O)[C@@H](O)[C@H](O)c1c[nH]c(-c2cc(-c3ccccc3)on2)n1 :: -2
2. Cl.OC[C@@H](O)[C@@H](O)[C@H](O)c1c[nH]c(-c2cc(C3CC3)on2)n1 :: -19

Query :: Answer with reported Activity of CCOc1cc(-c2nc([C@@H](O)[C@H](O)[C@H](O)CO)c[nH]2)no1.Cl
Result :: -26

Query :: Please list Activity recorded for the molecule Cl.OCc1cc(-c2nc([C@@H](O)[C@H](O)[C@H](O)CO)c[nH]2)no1
Result :: -7

Query :: Entry CC(C)c1cc(-c2nc([C@@H](O)[C@H](O)[C@H](O)CO)c[nH]2)no1.Cl needs its Activity filled in; supply it.
Result :: -30

Query :: Indicate its recorded Activity; the molecule in question is CC(=O)c1c(-c2nc([C@@H](O)[C@H](O)[C@H](O)CO)c[nH]2)noc1C.Cl
Result :: -6

Query :: Return Activity for the following molecule: Cl.OC[C@@H](O)[C@@H](O)[C@H](O)c1c[nH]c(C2=NOCC2)n1
Result :: -12

The measurements presented in this section are drawn from ChEMBL document CHEMBL1799925.
